- tgt: muPA (Mus musculus, UniProt P06869)
- Construct: To ensure that the uPAs purified from the conditioned media were completely in the two-chain form, they were treated with plasmin; hexa-His (C); made in house; host or cells: HEK293 6E suspension cells
- Sequence (P06869 180-433 limits assumed): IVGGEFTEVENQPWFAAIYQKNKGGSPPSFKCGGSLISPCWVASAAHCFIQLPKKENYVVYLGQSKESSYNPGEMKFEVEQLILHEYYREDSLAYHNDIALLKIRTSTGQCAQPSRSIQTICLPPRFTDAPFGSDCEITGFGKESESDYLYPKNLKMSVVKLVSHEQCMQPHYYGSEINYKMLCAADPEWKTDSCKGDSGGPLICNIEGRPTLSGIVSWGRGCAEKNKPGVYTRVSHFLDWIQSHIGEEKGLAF
- Sequence (P06869 21-178 partner limits assumed): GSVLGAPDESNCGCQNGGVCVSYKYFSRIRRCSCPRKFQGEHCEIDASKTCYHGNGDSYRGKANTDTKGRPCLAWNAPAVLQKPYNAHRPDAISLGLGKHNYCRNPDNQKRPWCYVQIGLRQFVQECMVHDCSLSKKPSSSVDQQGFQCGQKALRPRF
- assayOverview: Surface plasmon resonance analysis of peptide binding to muPA
- Set-up: species or system murine
- experimentalContext: SPR, 25°C, pH 7.4
Bridge positions count the residues as written; N and C are the ends. Square brackets hold non-standard residues; d marks the D form. Peptide text beside a SMILES is read from it. Ala(1-amidino-4-piperidyl) = N=C(N)N1CCC(C[C@H](N)C(=O)O)CC1; Phe(4-guanidino) = N=C(N)Nc1ccc(C[C@H](N)C(=O)O)cc1

{"molecule": "CC(=O)N[C@H]1CSSC[C@@H](C(N)=O)NC(=O)[C@H](C)NC(=O)[C@H](CC(C)C)NC(=O)[C@H](Cc2ccc(O)cc2)NC(=O)[C@H](Cc2ccc(NC(=N)N)cc2)NC(=O)[C@H](CO)NC(=O)[C@H](Cc2ccc(O)cc2)NC(=O)[C@H](C)NC(=O)[C@@H]2CCCN2C1=O [Mupain-1-12 D9A, CPAYS[4-guanidino-phenyl-alanine]YLAC] (Ac-CPAYS[Phe(4-guanidino)]YLAC-NH2; disulfide 1-10; N-terminus assumed)", "k on, muPA": "2.42±1.01 (3) M^−1s^−1, ×10^−5"}
{"molecule": "CC(=O)N[C@H]1CSSC[C@@H](C(N)=O)NC(=O)[C@H](CC(=O)O)NC(=O)[C@H](CC(C)C)NC(=O)[C@H](Cc2ccc(O)cc2)NC(=O)[C@H](CC2CCN(C(=N)N)CC2)NC(=O)[C@H](CO)NC(=O)[C@H](Cc2ccc(O)cc2)NC(=O)[C@H](C)NC(=O)[C@@H]2CCCN2C1=O [Mupain-1-16] (Ac-CPAYS[Ala(1-amidino-4-piperidyl)]YLDC-NH2; disulfide 1-10)", "k on, muPA": "0.898±0.545 (3) M^−1s^−1, ×10^−5"}
{"molecule": "CC(=O)N[C@H]1CSSC[C@@H](C(N)=O)NC(=O)[C@H](C)NC(=O)[C@H](CC(C)C)NC(=O)[C@H](Cc2ccc(O)cc2)NC(=O)[C@H](CC2CCN(C(=N)N)CC2)NC(=O)[C@H](CO)NC(=O)[C@H](Cc2ccc(O)cc2)NC(=O)[C@H](C)NC(=O)[C@@H]2CCCN2C1=O [Mupain-1-16 D9A] (Ac-CPAYS[Ala(1-amidino-4-piperidyl)]YLAC-NH2; disulfide 1-10)", "k on, muPA": "5.79±0.82 (3) M^−1s^−1, ×10^−5"}

----------
We begin with a simple list: items and their reported k on, muPA.
- tgt: muPA (Mus musculus, UniProt P06869)
- Construct: To ensure that the uPAs purified from the conditioned media were completely in the two-chain form, they were treated with plasmin; hexa-His (C); made in house; host or cells: HEK293 6E suspension cells
- assayOverview: Surface plasmon resonance analysis of peptide binding to muPA
- Parameters: species or system murine
- experimentalContext: SPR, 25°C, pH 7.4
Bridge positions count the residues as written; N and C are the ends. Square brackets hold non-standard residues; d marks the D form. Peptide text beside a SMILES is read from it. Phe(4-guanidino) = N=C(N)Nc1ccc(C[C@H](N)C(=O)O)cc1
quantityName: k on, muPA

{"molecule": "CC(=O)N[C@H]1CSSC[C@@H](C(N)=O)NC(=O)[C@H](C)NC(=O)[C@H](CC(C)C)NC(=O)[C@H](Cc2ccc(O)cc2)NC(=O)[C@H](CCCNC(=N)N)NC(=O)[C@H](CO)NC(=O)[C@H](Cc2ccc(O)cc2)NC(=O)[C@H](C)NC(=O)[C@@H]2CCCN2C1=O [Mupain-1 D9A, CPAYSRYLAC] (Ac-CPAYSRYLAC-NH2; disulfide 1-10)", "result": "0.985±0.169 (3) M^−1s^−1, ×10^−5"}
{"molecule": "CC(=O)N[C@H]1CSSC[C@@H](C(N)=O)NC(=O)[C@H](CC(=O)O)NC(=O)[C@H](CC(C)C)NC(=O)[C@H](Cc2ccc(O)cc2)NC(=O)[C@H](CCCNC(=N)N)NC(=O)[C@H](CO)NC(=O)[C@H](Cc2ccc(O)cc2)NC(=O)[C@H](C)NC(=O)[C@@H]2CCCN2C1=O [Mupain-1, CPAYSRYLDC] (Ac-CPAYSRYLDC-NH2; disulfide 1-10)", "result": "0.914±0.250 (6) M^−1s^−1, ×10^−5"}
{"molecule": "CC(=O)N[C@H]1CSSC[C@@H](C(N)=O)NC(=O)[C@H](CC(=O)O)NC(=O)[C@H](CC(C)C)NC(=O)[C@H](Cc2ccc(O)cc2)NC(=O)[C@H](Cc2ccc(NC(=N)N)cc2)NC(=O)[C@H](CO)NC(=O)[C@H](Cc2ccc(O)cc2)NC(=O)[C@H](C)NC(=O)[C@@H]2CCCN2C1=O [Mupain-1-12, CPAYS[4-guanidino-phenyl-alanine]YLDC] (Ac-CPAYS[Phe(4-guanidino)]YLDC-NH2; disulfide 1-10)", "result": "1.56±0.95 (4) M^−1s^−1, ×10^−5"}

----------
We begin with a simple list: items and their reported Ki.
- tgt: muPA K143A (Mus musculus, UniProt P06869, K322A)
- Construct: To ensure that the uPAs purified from the conditioned media were completely in the two-chain form, they were treated with plasmin; hexa-His (C)
- Sequence (P06869 180-433 K322A, one chain of several): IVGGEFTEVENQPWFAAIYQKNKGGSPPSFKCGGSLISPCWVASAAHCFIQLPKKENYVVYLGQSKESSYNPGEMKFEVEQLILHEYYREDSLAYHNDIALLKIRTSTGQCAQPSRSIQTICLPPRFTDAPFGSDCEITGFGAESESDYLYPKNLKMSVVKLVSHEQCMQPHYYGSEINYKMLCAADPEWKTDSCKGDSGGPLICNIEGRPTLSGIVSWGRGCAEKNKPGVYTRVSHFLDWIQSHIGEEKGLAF
- assayOverview: Ki for inhibition of muPA-K143A, chromogenic substrate
- experimentalContext: means ± S.D.; read-out: K i for inhibition of muPA-K143A
Bridge positions count the residues as written; N and C are the ends. Square brackets hold non-standard residues; d marks the D form. Peptide text beside a SMILES is read from it. Phe(4-guanidino) = N=C(N)Nc1ccc(C[C@H](N)C(=O)O)cc1

{"molecule": "CC(=O)N[C@H]1CSSC[C@@H](C(N)=O)NC(=O)[C@H](CC(=O)O)NC(=O)[C@H](CC(C)C)NC(=O)[C@H](Cc2ccc(O)cc2)NC(=O)[C@H](CCCNC(=N)N)NC(=O)[C@H](CO)NC(=O)[C@H](Cc2ccc(O)cc2)NC(=O)[C@H](C)NC(=O)[C@@H]2CCCN2C1=O [Mupain-1, CPAYSRYLDC] (Ac-CPAYSRYLDC-NH2; disulfide 1-10)", "Ki (µM)": 4.88}
{"molecule": "CC(=O)N[C@H]1CSSC[C@@H](C(N)=O)NC(=O)[C@H](CC(=O)O)NC(=O)[C@H](CC(C)C)NC(=O)[C@H](Cc2ccc(O)cc2)NC(=O)[C@H](Cc2ccc(NC(=N)N)cc2)NC(=O)[C@H](CO)NC(=O)[C@H](Cc2ccc(O)cc2)NC(=O)[C@H](C)NC(=O)[C@@H]2CCCN2C1=O [Mupain-1-12, CPAYS[4-guanidino-phenyl-alanine]YLDC] (Ac-CPAYS[Phe(4-guanidino)]YLDC-NH2; disulfide 1-10)", "Ki (µM)": 1}
{"molecule": "CC(=O)N[C@H]1CSSC[C@@H](C(N)=O)NC(=O)[C@H](C)NC(=O)[C@H](CC(C)C)NC(=O)[C@H](Cc2ccc(O)cc2)NC(=O)[C@H](Cc2ccc(NC(=N)N)cc2)NC(=O)[C@H](CO)NC(=O)[C@H](Cc2ccc(O)cc2)NC(=O)[C@H](C)NC(=O)[C@@H]2CCCN2C1=O [Mupain-1-12 D9A, CPAYS[4-guanidino-phenyl-alanine]YLAC] (Ac-CPAYS[Phe(4-guanidino)]YLAC-NH2; disulfide 1-10; N-terminus assumed)", "Ki (µM)": 1}

----------
- tgt: huPA-H99Y (Homo sapiens, UniProt P00749, C299A/H272Y/N322Q)
- Construct: recombinant uPA catalytic domain (residues 159–411), harbouring a H99Y mutation
- assayOverview: Isothermal titration calorimetry for binding to huPA-H99Y catalytic domain
- experimentalContext: ITC, 25°C, pH 7.4
pKd: −log10 of the molar value. Bridge positions count the residues as written; N and C are the ends. Square brackets hold non-standard residues; d marks the D form. Peptide text beside a SMILES is read from it. Ala(1-amidino-4-piperidyl) = N=C(N)N1CCC(C[C@H](N)C(=O)O)CC1; Phe(4-guanidino) = N=C(N)Nc1ccc(C[C@H](N)C(=O)O)cc1
quantityName: pKd

{"molecule": "CC(=O)N[C@H]1CSSC[C@@H](C(N)=O)NC(=O)[C@H](C)NC(=O)[C@H](CC(C)C)NC(=O)[C@H](Cc2ccc(O)cc2)NC(=O)[C@H](Cc2ccc(NC(=N)N)cc2)NC(=O)[C@H](CO)NC(=O)[C@H](Cc2ccc(O)cc2)NC(=O)[C@H](C)NC(=O)[C@@H]2CCCN2C1=O [Mupain-1-12 D9A, CPAYS[4-guanidino-phenyl-alanine]YLAC] (Ac-CPAYS[Phe(4-guanidino)]YLAC-NH2; disulfide 1-10; N-terminus assumed)", "result": 6.86}
{"molecule": "CC(=O)N[C@H]1CSSC[C@@H](C(N)=O)NC(=O)[C@H](CC(=O)O)NC(=O)[C@H](CC(C)C)NC(=O)[C@H](Cc2ccc(O)cc2)NC(=O)[C@H](CCCNC(=N)N)NC(=O)[C@H](CO)NC(=O)[C@H](Cc2ccc(O)cc2)NC(=O)[C@H](C)NC(=O)[C@@H]2CCCN2C1=O [Mupain-1, CPAYSRYLDC] (Ac-CPAYSRYLDC-NH2; disulfide 1-10)", "result": 5.30}
{"molecule": "CC(=O)N[C@H]1CSSC[C@@H](C(N)=O)NC(=O)[C@H](C)NC(=O)[C@H](CC(C)C)NC(=O)[C@H](Cc2ccc(O)cc2)NC(=O)[C@H](CC2CCN(C(=N)N)CC2)NC(=O)[C@H](CO)NC(=O)[C@H](Cc2ccc(O)cc2)NC(=O)[C@H](C)NC(=O)[C@@H]2CCCN2C1=O [Mupain-1-16 D9A] (Ac-CPAYS[Ala(1-amidino-4-piperidyl)]YLAC-NH2; disulfide 1-10)", "result": 6.87}
{"molecule": "CC(=O)N[C@H]1CSSC[C@@H](C(N)=O)NC(=O)[C@H](C)NC(=O)[C@H](CC(C)C)NC(=O)[C@H](Cc2ccc(O)cc2)NC(=O)[C@H](CCCNC(=N)N)NC(=O)[C@H](CO)NC(=O)[C@H](Cc2ccc(O)cc2)NC(=O)[C@H](C)NC(=O)[C@@H]2CCCN2C1=O [Mupain-1 D9A, CPAYSRYLAC] (Ac-CPAYSRYLAC-NH2; disulfide 1-10)", "result": 5.93}
